Source: patent EP3290417A1

- Study System: human P2X7 channel (Homo sapiens, UniProt Q99572)
- Construct: expressed in transfected cells; host or cells: HEK-293
- Sequence (Q99572 whole entry): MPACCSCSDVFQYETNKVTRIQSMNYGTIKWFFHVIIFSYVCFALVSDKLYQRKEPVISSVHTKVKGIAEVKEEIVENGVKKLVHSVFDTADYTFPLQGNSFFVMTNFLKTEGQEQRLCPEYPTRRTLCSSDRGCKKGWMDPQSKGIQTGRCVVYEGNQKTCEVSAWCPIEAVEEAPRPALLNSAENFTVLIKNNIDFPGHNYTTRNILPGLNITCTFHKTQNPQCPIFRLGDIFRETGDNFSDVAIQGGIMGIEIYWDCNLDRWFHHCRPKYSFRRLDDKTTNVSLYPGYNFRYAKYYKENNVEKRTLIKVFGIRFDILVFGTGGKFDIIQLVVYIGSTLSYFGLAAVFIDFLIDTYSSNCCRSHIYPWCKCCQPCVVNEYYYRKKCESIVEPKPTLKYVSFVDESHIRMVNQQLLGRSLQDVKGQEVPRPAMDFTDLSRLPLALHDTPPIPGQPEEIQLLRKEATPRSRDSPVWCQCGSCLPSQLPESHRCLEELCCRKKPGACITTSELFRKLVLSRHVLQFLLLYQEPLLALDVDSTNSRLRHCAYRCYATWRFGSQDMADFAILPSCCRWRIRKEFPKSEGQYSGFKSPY
- Protocol Details: human P2X7 channel assay by automated patch-clamp (QPatch16X, whole-cell voltage clamp)
- Type: cell-based
- Assay Context: HEK-293 cells expressing the P2X7 channels; current evoked by 100 microM BzATP; held at -80 mV; room temperature; read-out: hP2X7 (IC50; nM)
- Description: In order to directly monitor the block of P2X7 channel, an electrophysiological assay was developed and implemented on the QPatch16X automated electrophysiology instrument. HEK-293 cells expressing the P2X7 channels were cultured in modified EMEM. 72 hours before experiment, 5 million cells were seeded onto T225 flasks. […] The maximal inward current evoked by BzATP in absence or presence of increasing concentrations of the compounds under investigation was measured and normalized. […]
Value Type: IC50 (nM)

Below: 5 compounds and their reported IC50.
Value of measured IC50 for the entry O=C(NCC(c1cnc(C(F)F)s1)N1CCOCC1)c1cc(-c2ncc(F)cn2)ccc1Cl (racemic) [Compound 1] : 47.1

For this compound ( O=C(NCC(c1cnc(CF)s1)N1CCOCC1)c1cc(-c2ncc(F)cn2)ccc1Cl (stereo not shown) ), measured IC50 is 38.3

So, C#Cc1ncc(C(CNC(=O)c2cc(-c3ncc(F)cn3)ccc2Cl)N2CCC(F)(F)CC2)s1 (stereo not shown) ? Its IC50 was 39.2

The compound listed as O=C(NCC(c1scnc1CF)N1CCC(F)(F)CC1)c1cc(-c2ncc(F)cn2)ccc1Cl (stereo not shown) has a reported IC50 of 33.3

O=C(NCC(c1cnc(CF)s1)N1CCC(F)(F)CC1)c1cc(-c2ncc(F)cn2)ccc1Cl (stereo not shown) yielded IC50 of 20.3

[A] O=C(NCC(c1cnc(C(F)F)s1)N1CCOCC1)c1cc(-c2ncc(F)cn2)ccc1Cl (single isomer, unassigned; (-)) [Compound 3]
[B] O=C(NCC(c1scnc1CO)N1CCC(F)(F)CC1)c1cc(-c2ncc(F)cn2)ccc1Cl (stereo not shown)
Exam item: Hi there, can you help? I need to know whether A or B has lower measured IC50. API: response body contains the label of the selected item.
Marked response: A
